target-or-system: T1, human BCMA with a His tag (ACROBiosystems, Catalog No.: BCA-H522y) (human)
T1 construct: Bought His-tagged recombinant protein; also called huBCMA-His; Recombinant human BCMA
T1 chain: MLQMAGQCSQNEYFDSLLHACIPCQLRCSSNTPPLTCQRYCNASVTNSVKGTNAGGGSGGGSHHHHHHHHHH
experiment-description: ELISA, plate-coated human BCMA-His
readout-kind: EC50 (ng/mL)
Provide only the numeric value, understood in ng/mL.

Fill in EC50 for record SCT-Aa01(h/h) (antibody, V domains shown, Full IgG format, chimeric: human IgG1 heavy chain constant region, human kappa light chain constant region) VH: DVQLQESGPGLVKPSQSLSLTCSVTGYSITSGYYWNWIRQFPGNKLEWMGYIRYDGSNNYNPSLKNRISITRDTSKNQFFLKLNSVTTEDTATYYCAPYDYDYAMDFWGQGTSVTVSS VL: DIQMTQSPASLSASVGETVTITCRASGNIHNYLAWYQQKQGKSPQLLVYNAKTLAHGVPSRFSGSGSGTQYSLKITSLQPEDFGTYYCQHFWSTPFTFGSGTKLEIK
3.38

***
Please report the measured EC50 for SCT-Aa05(h/h) (antibody, V domains shown, Full IgG format, chimeric: human IgG1 heavy chain constant region, human kappa light chain constant region) VH: EVKLLQSGGGLVQPGGSLKLSCAASGIDFSRYWMSWVRRAPGKGLEWIGEINPDSSTINYAPSLKDKFIISRDNAKNTLYLQMSKVRSEDTGLYYCASLYYDYEREYGMDYWGQGTSVTVSS VL: DIVMTQSQKFMSTSVGDRVSVTCKASQNVGTNVAWYQQKPGQSPKALIYSASYRFSGVPDRFTGSGSGTDFTLTISNVQSEDLAEYFCQQYNSYPYTFGGGTKLEIK
2.35

Look up and report measured EC50 for this entry: SCT-Aa02(m/m) (antibody, V domains shown, Full IgG format: mouse IgG1 heavy chain constant region, mouse kappa light chain constant region) VH: EVKLLQSGGGLVQPGGSLKLSCAASGIDFSRYWMSWVRRAPGKGLEWIGEINPDSSTINSAPSLEDKFIISRDNAKNTLYLQMSKVRSEDTALYYCASLYYDYERDYAMDYWGQGASVTVSS VL: DIVMTQSQKFMSTSVGDRVSVTCKASQNVGTNVAWYQQKPGQSPKALIYSASYRFSGVPDRFTGSGSGTDFTLTISNVQSEDLAEYFCQQYHSYPFTFGGGTKLEIK
2.86
